Record form. Attribute: AC50. Fill in for each entry.
- system tested: Beta-1 adrenergic receptor (Homo sapiens, UniProt P08588); also: assay procedure not described here
- Sequence (P08588 whole entry): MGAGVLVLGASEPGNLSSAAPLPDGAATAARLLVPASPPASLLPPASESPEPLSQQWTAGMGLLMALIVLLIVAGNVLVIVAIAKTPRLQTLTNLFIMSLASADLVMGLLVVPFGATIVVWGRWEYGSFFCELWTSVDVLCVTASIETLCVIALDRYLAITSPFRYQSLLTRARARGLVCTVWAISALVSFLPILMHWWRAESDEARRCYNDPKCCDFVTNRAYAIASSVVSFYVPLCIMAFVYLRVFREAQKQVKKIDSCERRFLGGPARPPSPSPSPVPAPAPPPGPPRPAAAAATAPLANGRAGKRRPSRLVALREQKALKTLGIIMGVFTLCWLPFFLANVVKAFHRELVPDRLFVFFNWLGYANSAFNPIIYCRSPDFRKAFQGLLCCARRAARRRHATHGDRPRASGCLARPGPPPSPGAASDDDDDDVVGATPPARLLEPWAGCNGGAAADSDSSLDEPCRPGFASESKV
- Type: functional

The recorded AC50 for entry CC(N)C(O)c1ccccc1 (centres undefined) equals > 10 µM

Sure, the documented AC50 for Cc1cnc(C(=O)NCCc2ccc(S(=O)(=O)NC(=O)NC3CCCCC3)cc2)cn1 [GLIPIZIDE] is > 10 µM

The value of AC50 measured for the compound NC(=O)CN1CCCC1=O turned out to be > 30 µM

The reported value for C/C(=C\C(=O)OCCCCCCCCC(=O)O)C[C@@H]1OC[C@H](C[C@@H]2O[C@H]2[C@@H](C)[C@H](C)O)[C@@H](O)[C@H]1O in terms of AC50 is > 10 µM

Short answer for Nc1cc(-c2ccncc2)c[nH]c1=O : AC50 was > 10 µM

Sure, the documented AC50 for CCC(C)C(CC)C(N)=O (centres undefined) [VALNOCTAMIDE] is > 30 µM

Per the record, CC(C(=O)O)c1ccc(CC2CCCC2=O)cc1 (centres undefined) has AC50 of > 30 µM

AC50 recorded for this compound, C#CCOc1ccc(N)cc1C(=O)NCCCC [PARSALMIDE] , is > 30 µM

Record summary for CCCC(CCC)C(N)=O [VALPROMIDE] : reported AC50 = > 10 µM

# compound C=CC[C@@H]1/C=C(\C)C[C@H](C)C[C@H](OC)[C@H]2O[C@@](O)(C(=O)C(=O)N3CCCC[C@H]3C(=O)O[C@H](/C(C)=C/[C@@H]3CC[C@@H](O)[C@H](OC)C3)[C@H](C)[C@@H](O)CC1=O)[C@H](C)C[C@@H]2OC [TACROLIMUS ANHYDROUS] ; its AC50 = > 30 µM

Record [H]/N=C(/N)N/C(=N/[H])NCCc1ccccc1 , field AC50: > 10 µM

Memo: O=C1CN=C(c2ccccn2)c2cc(Br)ccc2N1 , reported AC50: > 10 µM

Entry COc1cc2ncnc(Nc3ccc(F)c(Cl)c3)c2cc1NC(=O)/C=C/CN1CCCCC1 [DACOMITINIB ANHYDROUS] — recorded AC50 = > 30 µM

Item: CC(C(=O)O)c1ccc(-c2ccccc2)c(F)c1 (centres undefined) | AC50: > 10 µM

The recorded AC50 for CC(=O)[C@]1(O)Cc2c(O)c3c(c(O)c2[C@@H](O[C@H]2C[C@H](N)[C@H](O)[C@H](C)O2)C1)C(=O)c1ccccc1C3=O is > 30 µM

The recorded AC50 for Oc1ccc2c(c1)CC[C@H](c1ccccc1)[C@@H]2c1ccc(OCCN2CCCC2)cc1 is 10 µM

Note to self: AC50 recorded for CC1OC2(CS1)CN1CCC2CC1 (centres undefined) was > 10 µM

The recorded AC50 for entry Cc1cccc(N2CC(CO)OC2=O)c1 (centres undefined) equals > 30 µM

Record CC(CCc1ccc(O)cc1)NCCc1ccc(O)c(O)c1 (centres undefined) . Reported AC50: 5.58 µM

----------
- system tested: Epidermal growth factor receptor (Homo sapiens, UniProt P00533); also: assay procedure not described here
- Sequence (P00533 whole entry): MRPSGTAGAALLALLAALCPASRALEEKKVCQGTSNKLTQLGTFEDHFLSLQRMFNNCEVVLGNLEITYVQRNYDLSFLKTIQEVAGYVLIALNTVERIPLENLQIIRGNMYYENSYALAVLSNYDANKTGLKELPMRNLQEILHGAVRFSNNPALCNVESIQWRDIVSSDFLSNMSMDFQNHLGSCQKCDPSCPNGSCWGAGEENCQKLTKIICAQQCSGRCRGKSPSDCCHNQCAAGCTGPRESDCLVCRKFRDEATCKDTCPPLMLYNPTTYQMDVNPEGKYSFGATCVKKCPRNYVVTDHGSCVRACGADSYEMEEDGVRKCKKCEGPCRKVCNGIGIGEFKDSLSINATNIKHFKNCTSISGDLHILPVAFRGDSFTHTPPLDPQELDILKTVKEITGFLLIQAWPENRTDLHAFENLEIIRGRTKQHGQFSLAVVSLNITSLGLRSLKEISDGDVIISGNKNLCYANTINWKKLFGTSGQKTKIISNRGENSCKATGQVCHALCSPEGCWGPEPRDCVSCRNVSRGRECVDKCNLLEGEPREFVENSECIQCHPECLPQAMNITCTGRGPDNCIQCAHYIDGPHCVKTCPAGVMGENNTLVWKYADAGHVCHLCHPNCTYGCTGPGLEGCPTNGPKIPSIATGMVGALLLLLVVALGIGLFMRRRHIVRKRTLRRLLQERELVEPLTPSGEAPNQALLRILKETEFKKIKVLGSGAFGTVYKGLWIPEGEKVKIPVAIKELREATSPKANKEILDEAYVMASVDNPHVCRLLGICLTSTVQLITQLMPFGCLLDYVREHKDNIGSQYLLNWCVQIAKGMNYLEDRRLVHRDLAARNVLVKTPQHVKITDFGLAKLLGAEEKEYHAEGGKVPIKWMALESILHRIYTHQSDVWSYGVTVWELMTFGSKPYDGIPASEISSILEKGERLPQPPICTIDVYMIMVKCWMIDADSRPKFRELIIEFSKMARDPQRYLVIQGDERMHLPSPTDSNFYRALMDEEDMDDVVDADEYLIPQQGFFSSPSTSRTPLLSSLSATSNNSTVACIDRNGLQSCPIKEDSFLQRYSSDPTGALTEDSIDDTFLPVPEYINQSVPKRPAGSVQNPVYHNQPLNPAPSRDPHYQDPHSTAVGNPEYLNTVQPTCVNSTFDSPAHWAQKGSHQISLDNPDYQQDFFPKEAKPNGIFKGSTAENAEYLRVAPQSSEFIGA
- Type: functional
parameter measured: AC50

Lab note: measured AC50 of O=C(O)Cc1cc(I)c(Oc2ccc(O)c(I)c2)c(I)c1 [TIRATRICOL] was > 30 µM

Sure, the documented AC50 for C[C@H](CCC(=O)O)[C@H]1CC[C@H]2[C@@H]3[C@@H](O)C[C@@H]4C[C@H](O)CC[C@]4(C)[C@H]3CC[C@]12C [URSODIOL] is > 30 µM

Record C=CC[C@@H]1/C=C(\C)C[C@H](C)C[C@H](OC)[C@H]2O[C@@](O)(C(=O)C(=O)N3CCCC[C@H]3C(=O)O[C@H](/C(C)=C/[C@@H]3CC[C@@H](O)[C@H](OC)C3)[C@H](C)[C@@H](O)CC1=O)[C@H](C)C[C@@H]2OC [TACROLIMUS ANHYDROUS] . Reported AC50: > 30 µM

Reported AC50 for CCN1CCN(Cc2ccc(Nc3ncc(F)c(-c4cc(F)c5nc(C)n(C(C)C)c5c4)n3)nc2)CC1 [ABEMACICLIB] was 9.5 µM
